Entry source: paper PMC10531985

Molecular target: nucleolin (NCL) (Homo sapiens, UniProt P19338 1-710)
Sequence (P19338 whole entry): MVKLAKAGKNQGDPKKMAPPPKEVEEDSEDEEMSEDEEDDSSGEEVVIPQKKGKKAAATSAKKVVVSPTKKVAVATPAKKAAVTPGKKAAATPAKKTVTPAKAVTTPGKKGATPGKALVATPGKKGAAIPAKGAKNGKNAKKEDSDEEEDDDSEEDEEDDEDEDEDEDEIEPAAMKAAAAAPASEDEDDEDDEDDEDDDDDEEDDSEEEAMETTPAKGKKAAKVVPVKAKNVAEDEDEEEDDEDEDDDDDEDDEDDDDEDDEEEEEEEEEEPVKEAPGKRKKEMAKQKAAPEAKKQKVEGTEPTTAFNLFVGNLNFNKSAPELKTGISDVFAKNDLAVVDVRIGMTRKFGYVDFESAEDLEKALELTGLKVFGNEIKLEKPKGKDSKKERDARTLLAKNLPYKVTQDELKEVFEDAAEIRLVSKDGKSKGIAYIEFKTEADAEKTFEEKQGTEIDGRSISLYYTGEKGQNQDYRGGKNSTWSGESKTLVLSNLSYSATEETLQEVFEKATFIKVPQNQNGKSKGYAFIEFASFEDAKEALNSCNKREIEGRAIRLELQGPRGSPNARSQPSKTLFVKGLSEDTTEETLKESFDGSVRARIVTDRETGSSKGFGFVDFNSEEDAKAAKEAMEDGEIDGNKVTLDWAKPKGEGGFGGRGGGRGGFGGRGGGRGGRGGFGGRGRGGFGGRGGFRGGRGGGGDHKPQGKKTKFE
Experiment: SPR; 150 mM KCl; SPR: 10 mM HEPES, 150 mM KCl, 3 mM EDTA, pH 7.4, NCL on CM5 chip, temperature not stated; EMSA: 5x binding buffer listed as 40 mM Tris, 30 mM KCl, 1 mM MgCl2, 1 mM DTT, pH 8.0, 200 nM probe, room temperature 25 min, gel with 20 mM KCl at 4 C
Details: protein: recombinant; label: 5'-FAM; parallel G4
Recorded Endpoint: pKd
// returns pKd (minus log10 of molar concentration), number only

Record summary for GUUAGGGUUUAUGGGAUUG (structured_RNA) [Apt-3-F] : reported pKd = 7.60
